system-name: QRFPR (Homo sapiens, UniProt Q96P65)
Construct: expressed in transfected cells; host or cells: HEK293, transient
Sequence (Q96P65 whole entry): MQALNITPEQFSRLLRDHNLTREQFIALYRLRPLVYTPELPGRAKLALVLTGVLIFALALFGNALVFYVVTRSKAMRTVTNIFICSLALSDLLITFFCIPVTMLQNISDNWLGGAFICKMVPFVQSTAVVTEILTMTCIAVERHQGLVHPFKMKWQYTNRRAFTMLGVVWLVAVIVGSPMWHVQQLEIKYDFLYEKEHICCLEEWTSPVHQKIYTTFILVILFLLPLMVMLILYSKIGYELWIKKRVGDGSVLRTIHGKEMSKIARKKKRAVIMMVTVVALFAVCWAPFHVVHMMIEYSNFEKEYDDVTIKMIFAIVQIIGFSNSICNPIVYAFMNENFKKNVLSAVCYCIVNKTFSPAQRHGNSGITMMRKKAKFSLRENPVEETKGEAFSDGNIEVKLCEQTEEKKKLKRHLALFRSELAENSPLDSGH
measurement-protocol: IP accumulation assay, endogenous Gαq coupling, QRFPR
Type: cell-based
stated-conditions: 0.1 µM peptide, transiently transfected HEK293 cells, mean of at least three independent experiments
Method: For measuring IP accumulation, HEK293 cells grown to 70–80% confluency in 6-well plates were transiently co-transfected using Metafectene Pro (2.5 μl/μg DNA; Biontex) with plasmids containing receptor and/or mock (empty pcDNA3.1) (for endogenous Gq-coupling) using 4 μg total DNA in a ratio of 3:1 following the manufacturer’s instructions. […] IP accumulation was measured with the HTRF-based IP-One Gq kit (Cisbio) on a microplate reader (Tecan Spark). […]
Here, each record is paired with measured IP accumulation, x-fold of basal (mean), QRFPR# data.

q: What value of measured IP accumulation, x-fold of basal (mean), QRFPR# is listed for EASAFGDIIGELKGKGLGGRMRF-NH2 [FLP-27, NPY-like C. elegans FLP with C-terminal RxRF/Ya signature] ?
a: 0.87 x-fold of basal

q: What value of measured IP accumulation, x-fold of basal (mean), QRFPR# is listed for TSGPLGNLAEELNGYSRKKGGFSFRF-NH2 [QRFP26, human pyroglutamylated RFamide peptide, 26 residues, reference compound] ?
a: 22.77 x-fold of basal

Next item in the queue.
q: What value of measured IP accumulation, x-fold of basal (mean), QRFPR# is listed for APKPKFIRF-NH2 [FLP-5-1, C. elegans FMRFamide-like peptide, C-terminally amidated, synthesized by SPPS] ?
a: 0.95 x-fold of basal

----------
Here, each record is paired with measured IP accumulation, x-fold of basal (mean), NPFF1R data.
system-name: NPFF1R (Homo sapiens)
Construct: expressed in transfected cells; host or cells: HEK293, transient
Sequence (Q9GZQ6 whole entry): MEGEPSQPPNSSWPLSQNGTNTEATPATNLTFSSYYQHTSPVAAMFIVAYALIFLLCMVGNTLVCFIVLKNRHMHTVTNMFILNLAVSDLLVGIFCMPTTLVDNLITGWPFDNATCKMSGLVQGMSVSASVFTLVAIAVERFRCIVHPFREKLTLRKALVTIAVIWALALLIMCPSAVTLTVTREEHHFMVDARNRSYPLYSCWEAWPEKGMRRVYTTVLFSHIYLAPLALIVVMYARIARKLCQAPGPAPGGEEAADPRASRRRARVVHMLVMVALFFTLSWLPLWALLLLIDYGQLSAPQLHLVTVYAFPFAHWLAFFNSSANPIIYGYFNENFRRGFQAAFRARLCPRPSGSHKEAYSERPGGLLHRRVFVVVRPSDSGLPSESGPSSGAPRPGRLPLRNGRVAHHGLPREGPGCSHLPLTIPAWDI
measurement-protocol: IP accumulation assay, chimeric GαΔ6qi4myr, NPFF1R
Assay type: cell-based
stated-conditions: 10 µM peptide; chimeric GαΔ6qi4myr co-transfected; transiently transfected HEK293 cells; mean of at least three independent experiments
Experimental: For measuring IP accumulation, HEK293 cells grown to 70–80% confluency in 6-well plates were transiently co-transfected using Metafectene Pro (2.5 μl/μg DNA; Biontex) with plasmids containing receptor and/or mock (empty pcDNA3.1) (for endogenous Gq-coupling) using 4 μg total DNA in a ratio of 3:1 following the manufacturer’s instructions. […] IP accumulation was measured with the HTRF-based IP-One Gq kit (Cisbio) on a microplate reader (Tecan Spark). […]

q: NPFF1R (Homo sapiens) / IP accumulation, x-fold of basal (mean), NPFF1R / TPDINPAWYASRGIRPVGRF-NH2 [PrRP20, human prolactin-releasing peptide, 20 residues, reference compound] : value?
a: 2.37 x-fold of basal

q: NPFF1R (Homo sapiens) / IP accumulation, x-fold of basal (mean), NPFF1R / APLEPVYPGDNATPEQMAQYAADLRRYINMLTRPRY-NH2 [PP, human pancreatic polypeptide, reference compound] : value?
a: 0.75 x-fold of basal

q: NPFF1R (Homo sapiens) / IP accumulation, x-fold of basal (mean), NPFF1R / AGSDPNFLRF-NH2 [FLP-1-2, C. elegans FMRFamide-like peptide, C-terminally amidated, synthesized by SPPS] : value?
a: 3.54 x-fold of basal

Continuing:
q: NPFF1R (Homo sapiens) / IP accumulation, x-fold of basal (mean), NPFF1R / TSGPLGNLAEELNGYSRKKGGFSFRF-NH2 [QRFP26, human pyroglutamylated RFamide peptide, 26 residues, reference compound] : value?
a: 2.56 x-fold of basal

q: NPFF1R (Homo sapiens) / IP accumulation, x-fold of basal (mean), NPFF1R / APKPKFIRF-NH2 [FLP-5-1, C. elegans FMRFamide-like peptide, C-terminally amidated, synthesized by SPPS] : value?
a: 4.07 x-fold of basal

q: NPFF1R (Homo sapiens) / IP accumulation, x-fold of basal (mean), NPFF1R / ASPSFIRF-NH2 [FLP-4-2, C. elegans FMRFamide-like peptide, C-terminally amidated, synthesized by SPPS] : value?
a: 3.68 x-fold of basal

q: NPFF1R (Homo sapiens) / IP accumulation, x-fold of basal (mean), NPFF1R / NPENDTPFGTMRF-NH2 [FLP-3-4, C. elegans FMRFamide-like peptide, C-terminally amidated, synthesized by SPPS] : value?
a: 3.42 x-fold of basal

----------
system-name: NPR-5b (Caenorhabditis elegans, UniProt Q6F3C9)
Sequence (Q6F3C9 1-433): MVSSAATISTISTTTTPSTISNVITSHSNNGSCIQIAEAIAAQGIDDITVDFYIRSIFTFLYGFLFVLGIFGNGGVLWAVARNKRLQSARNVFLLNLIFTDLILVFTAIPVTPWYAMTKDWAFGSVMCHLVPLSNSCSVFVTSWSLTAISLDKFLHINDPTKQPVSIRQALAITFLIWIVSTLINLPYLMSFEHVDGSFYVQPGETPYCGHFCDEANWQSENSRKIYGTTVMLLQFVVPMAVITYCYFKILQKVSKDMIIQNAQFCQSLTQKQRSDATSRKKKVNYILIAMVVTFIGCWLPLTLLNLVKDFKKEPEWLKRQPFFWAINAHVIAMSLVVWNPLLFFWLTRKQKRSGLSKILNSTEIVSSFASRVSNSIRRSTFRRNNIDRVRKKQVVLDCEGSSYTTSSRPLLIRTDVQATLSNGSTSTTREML
measurement-protocol: cAMP reporter gene assay, Gi/o (with forskolin), NPR-5b
Type: cell-based, C. elegans
stated-conditions: 10 µM peptide; 1 µM forskolin set to 1.00; values > 1 = cAMP stimulation; transiently transfected HEK293 cells; mean of at least three independent experiments
parameter-measured: cAMP, x-fold of forskolin (mean), NPR-5b

These recorded examples may help you get a feel for the data.
q: What value of measured cAMP, x-fold of forskolin (mean), NPR-5b is listed for AGSDPNFLRF-NH2 [FLP-1-2, C. elegans FMRFamide-like peptide, C-terminally amidated, synthesized by SPPS] ?
a: 1.72 x-fold of forskolin

q: What value of measured cAMP, x-fold of forskolin (mean), NPR-5b is listed for APKPKFIRF-NH2 [FLP-5-1, C. elegans FMRFamide-like peptide, C-terminally amidated, synthesized by SPPS] ?
a: 1.96 x-fold of forskolin

q: What value of measured cAMP, x-fold of forskolin (mean), NPR-5b is listed for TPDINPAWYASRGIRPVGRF-NH2 [PrRP20, human prolactin-releasing peptide, 20 residues, reference compound] ?
a: 1.05 x-fold of forskolin

q: What value of measured cAMP, x-fold of forskolin (mean), NPR-5b is listed for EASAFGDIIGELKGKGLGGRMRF-NH2 [FLP-27, NPY-like C. elegans FLP with C-terminal RxRF/Ya signature] ?
a: 1.61 x-fold of forskolin

q: What value of measured cAMP, x-fold of forskolin (mean), NPR-5b is listed for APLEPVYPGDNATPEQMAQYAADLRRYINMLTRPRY-NH2 [PP, human pancreatic polypeptide, reference compound] ?
a: 0.96 x-fold of forskolin

Next item in the queue.
q: What value of measured cAMP, x-fold of forskolin (mean), NPR-5b is listed for APLEGFEDMSGFLRTIDGIQKPRF-NH2 [FLP-33, NPY-like C. elegans FLP with C-terminal RxRF/Ya signature] ?
a: 0.85 x-fold of forskolin

----------
Here, each record is paired with measured cAMP, x-fold of forskolin (mean), NPR-4b data.
system-name: NPR-4b (Caenorhabditis elegans, UniProt A0A078BTK0)
Sequence (A0A078BTK0 1-376): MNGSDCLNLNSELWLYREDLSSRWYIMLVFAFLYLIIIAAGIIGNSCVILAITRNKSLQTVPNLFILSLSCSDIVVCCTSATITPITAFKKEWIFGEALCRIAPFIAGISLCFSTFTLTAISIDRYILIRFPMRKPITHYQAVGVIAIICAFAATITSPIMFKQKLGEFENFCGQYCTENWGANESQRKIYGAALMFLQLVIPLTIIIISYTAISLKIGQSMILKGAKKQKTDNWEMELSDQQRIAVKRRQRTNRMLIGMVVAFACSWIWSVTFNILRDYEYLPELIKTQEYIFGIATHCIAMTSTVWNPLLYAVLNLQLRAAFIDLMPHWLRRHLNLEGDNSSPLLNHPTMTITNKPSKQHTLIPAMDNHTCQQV
measurement-protocol: cAMP reporter gene assay, Gi/o (inhibition of forskolin-induced cAMP), NPR-4b
Format: cell-based, C. elegans
stated-conditions: 0.1 µM peptide; 1 µM forskolin set to 1.00; transiently transfected HEK293 cells; mean of at least three independent experiments

q: What value of measured cAMP, x-fold of forskolin (mean), NPR-4b is listed for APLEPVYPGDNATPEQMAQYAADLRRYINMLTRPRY-NH2 [PP, human pancreatic polypeptide, reference compound] ?
a: 1.05 x-fold of forskolin

q: What value of measured cAMP, x-fold of forskolin (mean), NPR-4b is listed for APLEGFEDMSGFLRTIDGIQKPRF-NH2 [FLP-33, NPY-like C. elegans FLP with C-terminal RxRF/Ya signature] ?
a: 0.85 x-fold of forskolin

q: What value of measured cAMP, x-fold of forskolin (mean), NPR-4b is listed for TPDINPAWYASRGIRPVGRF-NH2 [PrRP20, human prolactin-releasing peptide, 20 residues, reference compound] ?
a: 1.10 x-fold of forskolin

Continuing:
q: What value of measured cAMP, x-fold of forskolin (mean), NPR-4b is listed for AGSDPNFLRF-NH2 [FLP-1-2, C. elegans FMRFamide-like peptide, C-terminally amidated, synthesized by SPPS] ?
a: 0.81 x-fold of forskolin

q: What value of measured cAMP, x-fold of forskolin (mean), NPR-4b is listed for NPENDTPFGTMRF-NH2 [FLP-3-4, C. elegans FMRFamide-like peptide, C-terminally amidated, synthesized by SPPS] ?
a: 0.67 x-fold of forskolin

q: What value of measured cAMP, x-fold of forskolin (mean), NPR-4b is listed for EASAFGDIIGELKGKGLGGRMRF-NH2 [FLP-27, NPY-like C. elegans FLP with C-terminal RxRF/Ya signature] ?
a: 1.07 x-fold of forskolin
